# systemTested: CXCR2 (Homo sapiens (Human))
# methodDescription: Inhibition of GROα-mediated intracellular calcium release in human neutrophils (FLIPR-3 Ca2+ mobilization)
# Assay type: cell-based
# conditionsUsed: human neutrophils, 25 nM GROα; read-out: IC50
# Method: In Tables 1-5, the IC50 or EC50 values were determined using the following assay. This assay measures intracellular calcium release via fluorescence as an indication of CXCR2 receptor activation by the physiologic agonist GROα. […] 6. The cell suspension was aliquoted into a 96-well Reading Plate (Corning) in a volume of 90 μL (10^5 cells/well). […] 9. The maximum change in fluorescence, expressed in arbitrary units over baseline (Max-Min) was used to determine the GROα response. […]
assayMetric: pIC50
Numbers only, as −log10 of the molar value.

[[record]]
moleculesmiles = "CC1(C)OB(c2ccc(CSc3ccc(C(=O)Nc4ccc(F)cc4)cn3)cc2)OC1(C)C"
testvalue = 6.95


Query string: What does the data say about its pIC50? Entry: O=C(O)c1cccc(CSc2ccc(C(=O)Nc3ccc(F)cc3)cn2)c1
Result string: 5.67

----------
Please provide measured Magnitude of Agonist Response (% of GROα only Control) for the entries that follow.
# systemTested: UniProt P25025
# methodDescription: Agonist activity: intracellular calcium release in human neutrophils in the absence of GROα
# Assay type: cell-based
# conditionsUsed: relative to the response to 25 nM GROα

[[record]]
moleculesmiles = "O=C(Nc1ccc(F)cc1)c1ccc(SCc2cc(OC(F)(F)F)ccc2O)nc1"
testvalue = "15%"

[[record]]
moleculesmiles = "O=C(Nc1ccc(F)cc1)c1ccc(SCc2ccccc2O)nc1"
testvalue = "60%"


As a next step, examine the compound that follows.
Query string: What does the data say about its Magnitude of Agonist Response (% of GROα only Control)? Entry: O=C(Nc1ccc(F)cc1)c1ccc(SCc2cc(OC(F)(F)F)ccc2B(O)O)nc1
Result string: 100%

----------
# systemTested: CXCR2 (Homo sapiens (Human), UniProt P25025)
# Sequence (P25025 whole entry): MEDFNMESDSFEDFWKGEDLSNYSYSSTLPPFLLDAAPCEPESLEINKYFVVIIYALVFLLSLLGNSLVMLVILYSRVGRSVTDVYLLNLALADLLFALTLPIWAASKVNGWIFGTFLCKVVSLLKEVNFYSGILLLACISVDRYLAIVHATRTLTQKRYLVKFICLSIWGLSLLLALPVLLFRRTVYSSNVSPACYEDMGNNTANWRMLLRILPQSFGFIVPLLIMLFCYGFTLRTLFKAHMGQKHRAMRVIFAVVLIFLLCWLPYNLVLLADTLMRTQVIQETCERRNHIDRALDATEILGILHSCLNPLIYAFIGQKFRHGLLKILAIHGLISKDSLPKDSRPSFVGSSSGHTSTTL
# methodDescription: Inhibition of GROα-mediated intracellular calcium release in human neutrophils (FLIPR-3 Ca2+ mobilization)
# Assay type: cell-based
# conditionsUsed: human neutrophils, 25 nM GROα; read-out: IC50
Please provide measured IC50 for the entries that follow.

Parameter requested: IC50. Apply to each item below.
1. O=C(Nc1ccc(F)cc1)c1ccc(SCC(=O)c2cc(Br)cc3c2OCC3)nc1
2. O=C(CSc1ccc(C(=O)Nc2ccc(F)cc2)cn1)c1ccc2c(c1)OCCO2
3. O=C(Nc1ccc(F)cc1)c1ccc(SCc2cc3c(cc2B(O)O)OCO3)nc1

Result string:
1. 529 nM
2. 194 nM
3. > 10000 nM

Parameter requested: IC50. Apply to each item below.
1. CC1(C)OB(c2ccccc2CSc2ccc(C(=O)Nc3ccc(F)cc3)cn2)OC1(C)C
2. O=C(Nc1ccc(F)cc1)c1ccc(SCc2ccc(C(F)(F)F)o2)nc1
3. O=C(Nc1ccc(F)cc1)c1ccc(SCC(=O)c2cc3ccccc3s2)nc1
4. O=C(CSc1ccc(C(=O)Nc2ccc(F)cc2)cn1)c1ccc2c(c1)OCO2
5. O=C(Nc1ccc(F)cc1)c1ccc(SCc2cc(F)ccc2B(O)O)nc1
6. O=C(Nc1ccc(F)cc1)c1ccc(SCc2ccc(-n3cccn3)cc2)nc1

Result string:
275 nM
> 5000 nM
1810 nM
> 5000 nM
52 nM
> 10000 nM

Parameter requested: IC50. Apply to each item below.
1. O=C(Nc1ccc(F)cc1)c1ccc(SCc2cccc(B(O)O)c2)nc1
2. O=C(Nc1ccc(F)cc1)c1ccc(SCc2ccc(-n3cccc3)cc2)nc1
3. O=C(Nc1ccc(F)cc1)c1ccc(SCC(=O)c2cc(-c3ccc(Cl)cc3)no2)nc1

Result string:
1: 1970 nM; 2: > 10000 nM; 3: > 10000 nM
